The measured values listed here are drawn from patent EP0641797A1.

Listed compounds paired with reported MIC
system: E. coli NHIJ JC-2; assay: MIC on standard strains, standard method of Japan Society of Chemotherapy; format: cell-based; settings: Escherichia coli, NHIJJC2

[
  {
    "smilesEntry": "Nc1nc(/C(=N/O)C(=O)N[C@@H]2C(=O)N3C(C(=O)[O-])=C(C[n+]4ccc(-c5nnco5)cc4)CS[C@H]23)cs1",
    "targetEntity": "E. coli NHIJ JC-2",
    "unitAbbreviation": "µg/mL",
    "MIC": 0.2
  },
  {
    "smilesEntry": "NC(=NO)c1cc[n+](CC2=C(C(=O)[O-])N3C(=O)[C@@H](NC(=O)/C(=N\\O)c4csc(N)n4)[C@H]3SC2)cc1",
    "targetEntity": "E. coli NHIJ JC-2",
    "unitAbbreviation": "µg/mL",
    "MIC": 0.2
  },
  {
    "smilesEntry": "Nc1nc(/C(=N/O)C(=O)N[C@@H]2C(=O)N3C(C(=O)[O-])=C(C[n+]4ccc(-c5cncs5)cc4)CS[C@H]23)cs1",
    "targetEntity": "E. coli NHIJ JC-2",
    "unitAbbreviation": "µg/mL",
    "MIC": 0.1
  },
  {
    "smilesEntry": "Nc1nc(/C(=N/O)C(=O)N[C@@H]2C(=O)N3C(C(=O)[O-])=C(C[n+]4ccc(-c5nsc(N)n5)cc4)CS[C@H]23)cs1",
    "targetEntity": "E. coli NHIJ JC-2",
    "unitAbbreviation": "µg/mL",
    "MIC": 0.1
  },
  {
    "smilesEntry": "Nc1nc(/C(=N/O)C(=O)N[C@@H]2C(=O)N3C(C(=O)[O-])=C(C[n+]4ccc(-c5nccs5)cc4)CS[C@H]23)cs1",
    "targetEntity": "E. coli NHIJ JC-2",
    "unitAbbreviation": "µg/mL",
    "MIC": 0.1
  },
  {
    "smilesEntry": "Nc1nc(/C(=N/O)C(=O)N[C@@H]2C(=O)N3C(C(=O)[O-])=C(C[n+]4cccc(-c5cscn5)c4)CS[C@H]23)cs1",
    "targetEntity": "E. coli NHIJ JC-2",
    "unitAbbreviation": "µg/mL",
    "MIC": 0.2
  }
]

* * *

tested on: C. freundii ATCC 8090; assay: MIC on standard strains, standard method of Japan Society of Chemotherapy; assay type: cell-based; settings: Citrobacter freundii, ATCC8090, C. freundii ATCC 8090; read-out: MIC
MIC values by entry

[
  {
    "compound": "Nc1nc(/C(=N/O)C(=O)N[C@@H]2C(=O)N3C(C(=O)[O-])=C(C[n+]4ccc(-c5ncno5)cc4)CS[C@H]23)ns1",
    "MIC": "0.78 µg/mL"
  },
  {
    "compound": "Nc1nc(/C(=N/O)C(=O)N[C@@H]2C(=O)N3C(C(=O)[O-])=C(C[n+]4ccc(-c5ncon5)cc4)CS[C@H]23)cs1",
    "MIC": "0.39 µg/mL"
  },
  {
    "compound": "NC(=NO)c1ccc[n+](CC2=C(C(=O)[O-])N3C(=O)[C@@H](NC(=O)/C(=N\\O)c4csc(N)n4)[C@H]3SC2)c1",
    "MIC": "0.39 µg/mL"
  },
  {
    "compound": "CN(C)CCn1nnnc1SCC1=C(C(=O)O)N2C(=O)[C@@H](NC(=O)Cc3csc(N)n3)[C@H]2SC1 [CTM, cefotiam, reference compound]",
    "MIC": "0.78 µg/mL"
  },
  {
    "compound": "Nc1nnc(-c2cc[n+](CC3=C(C(=O)[O-])N4C(=O)[C@@H](NC(=O)/C(=N\\O)c5csc(N)n5)[C@H]4SC3)cc2)o1",
    "MIC": "0.2 µg/mL"
  },
  {
    "compound": "NC(=NO)c1cc[n+](CC2=C(C(=O)[O-])N3C(=O)[C@@H](NC(=O)/C(=N\\O)c4csc(N)n4)[C@H]3SC2)cc1",
    "MIC": "0.2 µg/mL"
  },
  {
    "compound": "Nc1nc(/C(=N/O)C(=O)N[C@@H]2C(=O)N3C(C(=O)[O-])=C(C[n+]4ccc(-c5nccs5)cc4)CS[C@H]23)cs1",
    "MIC": "0.1 µg/mL"
  },
  {
    "compound": "Nc1nc(/C(=N/O)C(=O)N[C@@H]2C(=O)N3C(C(=O)[O-])=C(C[n+]4cccc(-c5ncno5)c4)CS[C@H]23)cs1",
    "MIC": "0.78 µg/mL"
  }
]
